- Tested on: plasma from the dogs (ACT)
- methodDescription: ACT in dogs after oral administration
- Assay type: in vivo
- conditionDetails: dog, 5 mg/kg, 1 hour
Quick reference for Increase in ACT (number of times that the initial time is increased), 1 hour among some compounds
Respond with the bare value in times.

Take a look at these entries with their results.
1. N=C(N)NCCC[C@H](NC(=O)C1(C(=O)NCc2ccccc2)CCCC1)B(O)O.O=S(=O)(O)c1ccccc1 6
2. COc1cccc(CCNC(=O)C2(C(=O)N[C@@H](CCCNC(=N)N)B(O)O)CCCC2)c1.O=S(=O)(O)c1ccccc1 9
3. COC12CCC(c3cccc(C(=O)N[C@@H](CCCNC(=N)N)B(O)O)c3)(CC1)CC2.Cl 3
4. Cl.N=C(N)NCCC[C@H](NC(=O)c1ccc(C23CCC(Cl)(CC2)CC3)cc1)B(O)O 4
5. COc1ccc(CCNC(=O)C2(C(=O)N[C@@H](CCCNC(=N)N)B(O)O)CCCC2)cc1OC 6

Ask: Please look at this compound and report its Increase in ACT (number of times that the initial time is increased), 1 hour: Cl.N=C(N)NCCC[C@H](NC(=O)c1cccc(C23CCC(O)(CC2)CC3)c1)B(O)O
Reply: 4

Ask: Determine its reported Increase in ACT (number of times that the initial time is increased), 1 hour: COC12CCC(c3ccc(C(=O)N[C@@H](CCCNC(=N)N)B(O)O)cc3)(CC1)CC2.Cl
Reply: 19

Ask: For the compound N=C(N)NCCC[C@H](NC(=O)C1(C(=O)NCCc2ccccc2)CCCC1)B(O)O.O=S(=O)(O)c1ccccc1 , report Increase in ACT (number of times that the initial time is increased), 1 hour.
Reply: 7
